method-summary: label from the status in PepcDB records

residue-sequence: MEQKSKFSSATVFSGKLLIASLFILSGILLFARNMGWITAELFNIIVSWHSLLIILGIYSMIRRHFVGGIILVLVGVYFLLGGLSWLPENSQAMVWPLALIIAGVLFLFKSRHRGPWDDKQRMFRDHREWMKHGHHGHAGMNFTDNQQQCESEDGFLRSDNTFGAARHVVLDELFKGAVVRTSCGGTTIDLRHTHIAPGETYIDIDCSWGGVEIYVPSDWKVVFKCNTFFGGCDDKRWQNGNINKESVLVIRGRLSFGGLEVKD
protein production: failed
//
residue-sequence: MSGNVGAGRHADELAIRTVQYRWLEATRKFDRQVLSSLMTDDVVFLTPGRLPFGKEEFLAACEQNDQRVIIEASATFEEIVIVEPMAYTRTHLHIKVTPRSGGAVRELAGHAMSIFRRSMFGEWQLARDANLVVPI
protein production: not failed
//
residue-sequence: MAEKNAYTVAQLADEYFERMIAGRWKHPNIVRSRIEKDIKPAIGSLKVEDVKPRHIDDVLKAVMKRGAPSIANDTLRWLKRMFNYAIKRHIIEYNPAAAFDPGDAGGKEKSLEHHHHHH
protein production: not failed
//
residue-sequence: MAMSHLFLSSSPQSSLALRLHSTTQFTLSYSKNNKDCSFQSANEAKVSKRSLLCRAIHMESGHSGEQPKKLNFDNLLRRTKHVWDNSPQPVKEFPWNRAFGNFIQLVLDLAISVVKFLFVPILAVSSISEMSYCAHERKLALVPFPLVIGMVVAGVLQETALKISPRLKEAEVPWHLIAMMMFFTLIKLPGPYYPYWGRLLVPHFANGVLLRALWSMFFWYKKTRNTSGNPLQNHSLETE
protein production: failed

====

method-summary: label from the status in PepcDB records

residue-sequence: MDLPVMPPVKPMLAKSVAKIPPGMHYEAKWDGFRAIVYRDGDEVELGSRTGKPLTRYFPELVVAVRERLPERCVVDGEIVIARDGHLDFDALTERIHPADSRVRTLAERTPASLVAFDLLALDDASLLDVGLADRRALLVRALSGVTPPVHVAPATDDIEVARRWFEQYEGAGLDGVVAKPLDLRYRQDERAMYKIKHERTADVVVAGYRFHKSGPVVGSLLLGLYDDRGLLQHVGVSAAFTMKRRAELVAELEPLRMDDARGHPWAAWAEEAAHESARLPGAPSRWSGKKDLSWVPLRPERVVEVAYDHMENGARFRHTARFRRWRPDRTPESCTYAQLEEPVRYDLAEILGGPLEHHHHHH
protein production: failed
//
residue-sequence: MSSKGEGSSSTAEREVKKQVASVIPVTRKLVKTMAAKAIISALTPSGCGRHSDSTGDGKELKPFKKKEGSVIPKERELVKTKAAKAIFSLFRPSCDGKQSSQPSRDGDGDHDGKRVYPTRY
protein production: failed

====

method-summary: label from the status in PepcDB records
measurement-label: protein production

The following sequences have reported results that may help.
residue-sequence: MKKLDASTAVSLTGMPELERIVESLCTPESYEAVYHQSLHGSPMPSLEALTELMARLRAALFPGYFGASNIVLESMRYHLAANLDSIYRILAEQVRRGGCFACADYATDCQNCESHSQETAMEFMRALPRIRQLLATDVKAAYEGDPAAKSPGETIFCYPSIYAMIHHRIAHELYRLDVPVIPRIISEMAHSRTGIDIHPGATVGEEFFIDHGTGVVIGETCIIGRGCRLYQGVTLGALSFPKDGGGALIKGIPRHPILQDGVTVYAGATILGRVTIGAGAIVGGNVWVTHDVAPGAKVVQQKSSPPAAEDRMVGTKNGTPKA
measurement-label: protein production
value-observed: failed
--
residue-sequence: MDEGRRINIPKIGAVKCKFHRLLEGTPKTLQIVLDVNEWYAVYTCEVPVQPLPETGSTVGVDVGTRYFAITSDGEFVHNPRHLGSALKKLRVQQRTVSRRKKGGNRRRKAVGQVAKTHRKIRRSRQDFHHKVAVKLVRENDLIAHEDLRVSNVVKSNLARSISDVGWSAFFDILRGKAESAGRVVVRVPPQYTSQRCHACGHTCRENRNNEVFKCVSCGHEDHADWNAAKNILGRAVPSGVNGSGVSHAVA
measurement-label: protein production
value-observed: failed
--
residue-sequence: MMNTPESRLVAAGLELPEVAAALGNYEPYSIVGSQLMTSGQFPYLQGKLLYQGQLGADYTVSEGYAACRLATLNAIAQLKQACGELSRIKQIYRLEGVLNVHQSCIEHPKALDGASDLLLEIFGEAGRHSRMIWTNPVMPLNSLCLVYLFAEL
measurement-label: protein production
value-observed: not failed
--
residue-sequence: MYMILELLNIIGIIAFTISGSLKGTNKGLDIFGVVTLGVITSYAGGIIADILLGIYPPQILKELNYLLLSVGISIFVFYFYKWLQTNPIKMIIAISDAVGLSTFATLGASLAYSYGLNPISVGLIAAIVGTGGGVIRDVLVNEIPMVLTKEIYATAALLSGFIYYFTTPYLHHDSLFVAFLGSFLLRILSIKYNFNLPKREDNKS
measurement-label: protein production
value-observed: failed
--
residue-sequence: MTTIDPRSELVDGRRRAGARVDAVGAAALLSAAARVGVVCHVHPDADTIGAGLALALVLDGCGKRVEVSFAAPATLPESLRSLPGCHLLVRPEVMRRDVDLVVTVDIPSVDRLGALGDLTDSGRELLVIDHHASNDLFGTANFIDPSADSTTTMVAEILDAWGKPIDPRVAHCIYAGLATDTGSFRWASVRGYRLAARLVEIGVDNATVSRTLMDSHPFTWLPLLSRVLGSAQLVSEAVGGRGLVYVVVDNREWVAARSEEVESIVDIVRTTQQAEVAAVFKEVEPHRWSVSMRAKTVNLAAVASGFGGGGHRLAAGYTTTGSIDDAVASLRAALGLEHHHHHH
measurement-label: protein production
value-observed: not failed

We now examine a further sequence.
Given MSRPPTTPSAPQTADLVRPARRGDLDGLLALARAADAGMTNLPADRAALDDRLAASEQALIDPETRNAGAAVYLVLERQGRVIGAACVFARIGVAQPFYSYRVTRLTQLSPDLGKRVEMSVLTLVNDLTDQAEVGGLFVAPDAR , state its recorded protein production.
failed

====

method-summary: label from the status in PepcDB records

residue-sequence: NQPAYKDSSLSPEERAEDLLQQLTLEEKVALMMDNSKPVERLGIKPYNWWNEALHGVARSGLATVFPQPIGMAASFEPDAIHTIYTAVSDEARAKNAAYSAAGSYERYQGLTMWTPTVNIYRDPRWGRGIETYGEDPYLTSVMGVNVVKGLQCMDANQKYDKIHACAKHFAVHSGPEWNRHEFNAENIKPRDLHETYLVPFEALVKEAKVKEVMCAYNRLEGDPCCGSDRLLMQILRQDWGYDGIVLSDCGAIDDFYREKGHKTHPDAESASAAAVLSGTDLECGSSYKALVESAKKGLISEKDIDVSVKRLLKARFELGEMDDP
protein production: failed
--
residue-sequence: MTREMARLLISPSNAWPRLRQDYDHHPFAFLVPLLLLPLLPAACLFIGTTQVGWSLPGNDSVQHLSSGSALLLATMCYLGFVAGVVIMGLFVRWVLFRTPSRPSVPGSLTFTTAIAVPLMLAGIVALVPWRILLLLAAAAACAYSVRLLFTGLPLFMRMQERQTLFYAFCILGVGFLTLLTTAFIFIELWGQSLAGSGEYLR
protein production: failed

====

method-summary: label from the status in PepcDB records
measurement-label: protein production

residue-sequence: MSSFKGIFGFNRVELKDLLISSIAIAIVVVWPRGFPTFNIGFFLHFIAALLTVGIAFIFHELAHRTVARHFGAWSEFRAWYEGLALAIFLKIILGFTFIAPGAVYIHKDYLKTKENGLISVAGPLTNIVLAVLFMILPIPAIYYSGYYVDISSYGYFVNIFLAMFNLLPIYPFDGSKVMRWNFLVWAVLFIPLIVLYFFV
value-observed: failed
//
residue-sequence: MWYSTVRNPSIALIKQGYHILAEYNLVKEELKNIYAIPSYACGLHWFGVIFVHSGIYAGSVFRFSILLPENFPADISLPTVVFSTEVLHPHICPQNKTLDLAHFLNEWRKDEHHIWHVLRYIQAIFADPEGSICTGQSSSGDLVIMDEVRNMNALNMLAKSRPEYIKRVQEQAILSRNLIYDRPPTEDPHYIIVEPYCAERHLKFMDQLKSPCWKEATSMDCSQPSEYLGHIDSSRQLDEEEANQVEKLHRGRIPEHQREESEVSL
value-observed: failed

====

method-summary: label from the status in PepcDB records
measurement-label: protein production

The following sequences have reported results that may help.
residue-sequence: MIEFVYPHTQLVAGVDEVGRGPLVGAVVTAAVILDPARPIAGLNDSKKLSEKRRLALYEEIKEKALSWSLGRAEPHEIDELNILHATMLAMQRAVAGLHIAPEYVLIDGNRCPKLPMPAMAVVKGDSRVPEISAASILAKVTRDAEMAALDIVFPQYGFAQHKGYPTAFHLEKLAEHGATEHHRRSFGPVKRALGLAS
protein production: not failed
//
residue-sequence: MQVHYYGGTAEAAGTSEETVETPTGLSVNQLLDHLRNLHPGLGRLLGVCTLFVDGSAVRGEQIVPARAQVEVLPPFAGG
protein production: failed
//
residue-sequence: MDTPILIPTDMNRIPFFYLLQISDPLFPIGGFTQSYGLETYVQKGIVHDAETSKKYLESYLLNSFLYNDLLAVRLSWEYTQKGNLNKVLELSEVFSASKAPRELRAANEKLGRRFIKILEFVLGENEMFCEMYEKVGRGSVEVSYPVMYGFCTNLLNIGKKEALSAVTYSAASSIINNCAKLVPISQNEGQKILFNAHGIFRRLLERVEELDEEYLGSCCFGFDLRAMQHERLYTRLYIS
protein production: failed
//
residue-sequence: MSQAHAAQRPNGAKEPANPTQGGRKAIIAAASANLAIAVTKAIAWALTGASSMLAEAIHSVADTANQVVLMMGGKESHKEADEDHPFGYETARYLSGFIVAIVIFTLGGLFALYEAYHKIGATLGGHPDELLDSQWWWVPLAVVMISLCAEGASLRTALKESSQDREGMTILQYIRKAKAPELPVVMLEDSAAVLGLIFAFLGVGLTLLTHNPIFDGIGSACIGILLVVVAGVLSREMKSLLEGESAAPESRKAVYDALIHSDGVDSVIYMKTVHLGPETILLAAKIAVDPTDSAFEVARIIDNAEASVRAAEPLVGPLFLEPDIRYGDKRIKDGEERPEDQS
protein production: failed
//
residue-sequence: MRKPKITVIGGGTGSPVILKSLREKDVEIAAIVTVADDGGSSGELRKNMQQLTPPGDLRNVLVAMSDMPKFYEKVFQYRFSEDAGAFAGHPLGNLIIAGLSEMQGSTYNAMQLLSKFFHTTGKIYPSSDHPLTLHAVFQDGTEVAGESHIVDHRGIIDNVYVTNALNDDTPLASRRVVQTILESDMIVLGPGSLFTSILPNIVIKEIGRALLETKAEIAYVCNIMTQRGETEHFTDSDHVEVLHRHLGRPFIDTVLVNIEKVPQEYMNSNRFDEYLVQVEHDFVGLCKQVSRVISSNFLRLENGGAFHDGDLIVDELMRIIQVKK
protein production: not failed
//
residue-sequence: MAKHEQILVLDPPSDLKFKGPFTDVVTTNLKLQNPSDRKVCFKVKTTAPRRYCVRPNSGIIDPGSIVTVSVMLQPFDYDPNEKSKHKFMVQTIFAPPNISDMEAVWKEAKPDELMDSKLRCVFEMPNENDKLND
protein production: not failed

Given MTGGLLVTGGSGAIGGALCRIAARQHPVWVGYGAGAGRARALAAEITQAGGRAEPLALPLQDPAALETALAALPEPPASLALCAWPAPFVAPFGRQGEDLALQAAALAGCHALIATAWRLWWRRAGGGHVLAVLSAASEPPVARHMAAYVAQKAALRALLAAAAAELGPAGLRVSVVAPGFVETPMLGAFDPRLLERARADAGGRFLSPERVAQALVAALDAPPPAGTVQDIHLAEEVESDEKQTA , state its recorded protein production.
failed
